// note: IC50 values for Epidermal growth factor receptor (Homo sapiens, UniProt P00533) were reported in different studies

# example entries with known answers
C[C@@H](Nc1ncnc2[nH]c(-c3ccc(NC(=O)CCCCCCC(=O)NO)cc3)cc12)c1ccccc1	< 100 nM
C=CC(=O)Nc1cccc(Oc2nc(Nc3cccc(OC)c3)ncc2C(=O)NC2CC2)c1	< 10 nM
CN1CC2(C1)CN(c1ccc(Nc3nc(Nc4ccccc4N(C)S(C)(=O)=O)c4cc[nH]c4n3)cc1F)C2	2180 nM
CCN1CCC(Oc2ccc3c(c2)/C(=C(\c2cccc(Cl)c2)c2nc4ccccc4[nH]2)C(=O)N3)CC1	500 to 5000 nM
COc1ccc(C(F)(F)F)cc1C(=O)NCc1ccc(-c2nn(C3CCCC3)c3ncnc(N)c23)cc1	> 10000 nM

Challenge: For the record `O=C1Nc2ccc(OC3CCN(Cc4ccccc4)CC3)cc2/C1=C(\c1ccccc1)c1nc2ccccc2[nH]1` , what value of IC50 is listed for Epidermal growth factor receptor (Homo sapiens, UniProt P00533)?
Response given: 500 to 5000 nM

Challenge: For the record `CCC(=O)N1CCC[C@@H](Nc2n[nH]c3nccc(Oc4ccc(C(=O)Nc5cc(C(F)(F)F)ccn5)cc4)c23)C1` , what value of IC50 is listed for Epidermal growth factor receptor (Homo sapiens, UniProt P00533)?
Response given: 100 to 1000 nM

Challenge: For the record `C=CC(=O)N1CCC[C@@H](Nc2n[nH]c3nccc(Oc4ccc(C(=O)Nc5cc(C(F)(F)F)ccn5)cc4)c23)C1` , what value of IC50 is listed for Epidermal growth factor receptor (Homo sapiens, UniProt P00533)?
Response given: < 100 nM
